system: Staphylococcus aureus; experiment: Growth inhibition of Staphylococcus aureus RN4220 expressing MsrA at 0.1 mg/ml after 24 hrs in presence of 16 mg/L erythromycin; type: functional
Active and inactive are the calls of the source. The rule behind the calls is not given here.
MEASUREMENT KIND: Activity

• C=CCn1cc(C(=O)O)nn1 = inactive
• OCc1cn(Cc2ccccc2)nn1 = inactive
• CCOC(OCC)c1cn(-c2cccnc2)nn1 = inactive
• CCOC(OCC)c1cn(-c2ccccc2)nn1 = inactive
